Tgt: PAK4 (Homo sapiens)
Sequence (O96013 whole entry): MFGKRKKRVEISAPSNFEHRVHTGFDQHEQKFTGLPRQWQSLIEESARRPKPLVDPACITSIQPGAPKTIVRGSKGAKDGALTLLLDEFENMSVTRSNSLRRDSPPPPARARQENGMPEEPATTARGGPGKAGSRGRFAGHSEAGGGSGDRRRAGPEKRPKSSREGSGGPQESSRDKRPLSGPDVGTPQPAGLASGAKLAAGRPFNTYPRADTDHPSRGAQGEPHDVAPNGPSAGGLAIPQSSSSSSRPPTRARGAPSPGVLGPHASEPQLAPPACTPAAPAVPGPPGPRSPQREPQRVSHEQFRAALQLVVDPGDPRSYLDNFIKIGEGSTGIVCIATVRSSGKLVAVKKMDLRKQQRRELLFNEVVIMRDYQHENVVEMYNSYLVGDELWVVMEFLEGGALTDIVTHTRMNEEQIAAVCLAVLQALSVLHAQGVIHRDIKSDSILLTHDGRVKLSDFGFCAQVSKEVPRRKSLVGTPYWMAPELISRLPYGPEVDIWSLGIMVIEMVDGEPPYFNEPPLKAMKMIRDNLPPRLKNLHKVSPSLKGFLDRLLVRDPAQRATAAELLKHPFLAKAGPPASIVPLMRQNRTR
Test: Z'Lyte fluorescence-based (FRET) PAK kinase assay, PAK4
Format: biochemical
Conditions: Table 1 of Example 100; 5 μM ATP
pIC50: −log10 of the molar value.
Metric: pIC50

1. CN1CCN(c2ccc(Nc3ncc4ccc(=O)n([C@@H]5CCCc6ccccc65)c4n3)cc2)CC1: 5.00 to 6.00
2. CN1CCN(c2ccc(Nc3ncc4ccc(=O)n(Cc5ccccc5Cl)c4n3)cc2)CC1: 5.00 to 6.00
3. CN1CCN(c2ccc(Nc3ncc4ccc(=O)n(C5CCCc6ccccc65)c4n3)cc2)CC1 (stereo not drawn): 5.00 to 6.00

----------
Tgt: PAK3 (Homo sapiens)
Sequence (O75914 whole entry): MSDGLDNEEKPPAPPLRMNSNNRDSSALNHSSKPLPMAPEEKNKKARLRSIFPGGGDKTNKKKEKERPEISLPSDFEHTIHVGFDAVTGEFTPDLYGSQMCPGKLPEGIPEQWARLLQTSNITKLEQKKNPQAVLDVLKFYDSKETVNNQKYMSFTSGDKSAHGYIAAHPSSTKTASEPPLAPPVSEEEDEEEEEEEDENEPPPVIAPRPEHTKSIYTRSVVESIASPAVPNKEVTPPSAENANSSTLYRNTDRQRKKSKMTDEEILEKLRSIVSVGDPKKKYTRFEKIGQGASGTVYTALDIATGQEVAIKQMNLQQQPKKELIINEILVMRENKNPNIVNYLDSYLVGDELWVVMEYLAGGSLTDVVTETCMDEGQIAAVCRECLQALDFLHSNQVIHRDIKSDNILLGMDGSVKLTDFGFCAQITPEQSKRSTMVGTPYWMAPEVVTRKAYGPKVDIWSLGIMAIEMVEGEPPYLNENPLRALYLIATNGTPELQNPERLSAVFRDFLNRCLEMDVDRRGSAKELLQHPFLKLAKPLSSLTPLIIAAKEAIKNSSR
Test: Z'Lyte fluorescence-based (FRET) PAK kinase assay, PAK3
Type: biochemical
Conditions: Table 1 of Example 100; 100 μM ATP
We begin with a simple list: items and their reported IC50.
Metric: IC50

1) CN1CCN(c2ccc(Nc3ncc4ccc(=O)n(C5CCOc6ccccc65)c4n3)cc2)CC1 (stereo not shown) [Compound 15]: 1 to 10 µM
2) CN1CCN(c2ccc(Nc3ncc4ccc(=O)n([C@@H]5CCCc6ccccc65)c4n3)cc2)CC1 [Compound 10]: 1 to 10 µM
3) CN1CCN(c2ccc(Nc3ncc4ccc(=O)n(Cc5c(F)cccc5C(F)(F)F)c4n3)cc2)CC1 [compound 58]: < 1 µM
4) CN1CCN(c2ccc(Nc3ncc4ccc(=O)n(Cc5ccccc5-n5cccn5)c4n3)cc2)CC1 [Compound 53]: 1 to 10 µM
5) CSc1cccc(F)c1Cn1c(=O)ccc2cnc(Nc3ccc(N4CCN(C)CC4)cc3)nc21 [compound 99]: < 1 µM
6) CN(C)CC(c1ccccc1)n1c(=O)ccc2cnc(Nc3ccc(N4CCN(C)CC4)cc3)nc21 (stereo not shown) [Compound 19]: > 10 µM
7) Cc1cccnc1Cn1c(=O)ccc2cnc(Nc3ccc(N4CCN(C)CC4)cc3)nc21 [Compound 52]: > 10 µM

Measured values drawn from patent US20120270844A1 for this set.
